# method-summary: folding stability dG unfold (combined trypsin and chymotrypsin); higher = more stable
# folding stability dG unfold per entry
reported-property: folding stability dG unfold (kcal/mol)

>  <macromolecule-sequence>
SFKLPPGQEIKVKIFILFVDPGDGRMYFIKIEYEITIKPDDDGNLDLDIEPTNIEVVGPMPADEAKEFFKSA [r9_423_TrROS]

>  <cmp>
=

>  <reported-value>
2.34

$$$$
>  <macromolecule-sequence>
SAGGSAGGSAKPKITVTVEEVTNEDGSTYYRATARIEETGRTIEIYVRRDDLGKPVAIKITSAGGSAGGSAG [r3_432_TrROS_Hall]

>  <cmp>
=

>  <reported-value>
2.18

$$$$
>  <macromolecule-sequence>
SAGGMSPDATITENLVTDSEEEALAKLLADPSVAEVKPLGVKPDKTKEGKPVIIVPVELRIPADGVRLSAGG [r19_221_JUSTAS]

>  <cmp>
<

>  <reported-value>
-1

$$$$
>  <macromolecule-sequence>
SANMPPGDWKPINIKVKIERPGGKPEFEYPIYKHPDGMIMIFIHFPIPPGAYKIKIEFPGNGKENEFKFSAG [r14_280_TrROS]

>  <cmp>
=

>  <reported-value>
2.29

$$$$

---

# folding stability dG unfold per entry
# method-summary: folding stability dG unfold from chymotrypsin proteolysis; higher = more stable

>  <macromolecule-sequence>
SAGGSAGGSAGGLLEELKAKGYTVLSTPVPSPPDGVPTRTVLAKKGEGTVTFVVPAALLSAGGSAGGSAGGS [r10_35_JUSTAS]

>  <unit-spec>
kcal/mol

>  <folding stability dG unfold>
0.525

$$$$
>  <macromolecule-sequence>
SAGGSAGGSAGKIEAFPGKNTVLLKISIPRRDPNSDSIYTLHAVIPATPEQAKKFLELGISAGGSAGGSAGG [r11_389_TrMRF]

>  <unit-spec>
kcal/mol

>  <folding stability dG unfold>
0.899

$$$$
>  <macromolecule-sequence>
SAGGSAGGSAKTITITFLFDSPENAKDFVREIAQEDGMKIKVEWERDPEGWWWVTATIEVPSAGGSAGGSAG [r3_273_TrROS]

>  <unit-spec>
kcal/mol

>  <folding stability dG unfold>
3.48

$$$$
>  <macromolecule-sequence>
SAGGSAGGSMDLKNAKIISIEETENEIKITIEVDGKLYTITISKEEAEKLKKLLEDLNIEIIPSAGGSAGGS [r12_604_TrROS_Hall]

>  <unit-spec>
kcal/mol

>  <folding stability dG unfold>
4.3

$$$$
>  <macromolecule-sequence>
SAGGSAGGSAMKLKVPTKDGKVYEVTVVDYDPENEKVVVKNPDTDELYTFSLEDFKKILEANSAGGSAGGSA [r18_161_TrMRF]

>  <unit-spec>
kcal/mol

>  <folding stability dG unfold>
3.55

$$$$
>  <macromolecule-sequence>
SAGGSAEIEPVSSEVDPNSDRTVTTNRIPGSGKTRTVTYDSSNPGVTTVTTYAPGGKPLSTTTLPTSAGGSA [r15_974_JUSTAS]

>  <unit-spec>
kcal/mol

>  <folding stability dG unfold>
-0.474

$$$$
>  <macromolecule-sequence>
SAGGSAGGSAGGSNIEVHYFPDGAIVMTIREPNGWYIKIVARIPPDGNIKITEIELFPMSAGGSAGGSAGGS [r4_246_TrROS]

>  <unit-spec>
kcal/mol

>  <folding stability dG unfold>
3.78

$$$$
>  <macromolecule-sequence>
SAGGSAGGSWRTITYEFKLPKPGQTAEDIAKEIMQLFPGVKDIEIKYYPEEGYIKVDIRFRPNSAGGSAGGS [r20_31_TrROS]

>  <unit-spec>
kcal/mol

>  <folding stability dG unfold>
2.88

$$$$
>  <macromolecule-sequence>
SAGGMSVSFPVDSSEELKKLLPKDYLVEIVSTPPDGSKSVRVVRPEDLEIDLPEGEKYYFEIKFLPKESAGG [r13_461_TrMRF]

>  <unit-spec>
kcal/mol

>  <folding stability dG unfold>
-0.138

$$$$

This collection of values is drawn from the supplement of paper PMC12764529.
